Hey, just so you know, these numbers are from ChEMBL document CHEMBL1156278.

- target-entity: Muscarinic acetylcholine receptor M1 (Homo sapiens, UniProt P11229)
- Sequence (P11229 whole entry): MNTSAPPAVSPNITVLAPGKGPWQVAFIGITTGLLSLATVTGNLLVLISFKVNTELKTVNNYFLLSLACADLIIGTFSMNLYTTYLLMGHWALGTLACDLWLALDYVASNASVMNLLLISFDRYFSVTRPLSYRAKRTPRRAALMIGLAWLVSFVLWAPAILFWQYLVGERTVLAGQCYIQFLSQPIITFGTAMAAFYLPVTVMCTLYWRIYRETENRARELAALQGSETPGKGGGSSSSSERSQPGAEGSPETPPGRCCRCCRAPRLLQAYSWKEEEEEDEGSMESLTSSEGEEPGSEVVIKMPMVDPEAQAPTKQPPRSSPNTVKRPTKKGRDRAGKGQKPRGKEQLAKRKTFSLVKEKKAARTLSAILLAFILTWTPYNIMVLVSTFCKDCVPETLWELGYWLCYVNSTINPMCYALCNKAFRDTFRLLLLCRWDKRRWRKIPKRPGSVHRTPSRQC
- protocol: Displacement of [3H]N-methylscopolamine from human muscarinic M1 receptor expressed in CHO Flp-In cells after 90 mins by scintillation counting
- Type: cell-based
Kindly state Ki for each of the entries shown.
Give just the numeric value; µM need not be written.

*Q* API: value(readout= Ki, system= Muscarinic acetylcholine receptor M1 (Homo sapiens, UniProt P11229), query= C[C@@H](c1ccccn1)c1c(CCN(C)C)sc2ccccc12 )
*A* 5.3

*Q* API: value(readout= Ki, system= Muscarinic acetylcholine receptor M1 (Homo sapiens, UniProt P11229), query= CNCCc1sc2ccccc2c1[C@@H](C)c1ccccn1 )
*A* 3.7

---

- target-entity: Histamine H1 receptor (Homo sapiens)
- protocol: Displacement of [3H]pyrilamine from human histamine H1 receptor expressed in CHO Flp-In cells after 90 mins by scintillation counting
- Type: cell-based
- conditions-used: read-out: Ki
Kindly state Ki for each of the entries shown.
Give just the numeric value; nM need not be written.

*Q* Endpoint output: Ki of COc1ncccc1[C@@H](C)c1c(CCN(C)C)sc2ccccc12 . Value?
*A* 2.9

*Q* Endpoint output: Ki of CC(c1ccccn1)c1c(CCN(C)C)sc2ccccc12 (racemic) . Value?
*A* 12

*Q* Endpoint output: Ki of C[C@@H](c1ccc(F)cn1)c1c(CCN(C)C)sc2ccccc12 . Value?
*A* 13

*Q* Endpoint output: Ki of Cc1cccnc1[C@H](C)c1c(CCN(C)C)sc2ccccc12 . Value?
*A* 9.3

*Q* Endpoint output: Ki of C[C@@H](c1cscn1)c1c(CCN(C)C)sc2ccccc12 . Value?
*A* 4.6

*Q* Endpoint output: Ki of C[C@H](c1c(CCN(C)C)sc2ccccc12)n1cccn1 . Value?
*A* 4.4

*Q* Endpoint output: Ki of Cc1ccnc(C(C)c2c(CCN(C)C)sc3ccccc23)c1 (racemic) . Value?
*A* 390

*Q* Endpoint output: Ki of COc1cccnc1[C@H](C)c1c(CCN(C)C)sc2ccccc12 . Value?
*A* 5

*Q* Endpoint output: Ki of CC(c1nccs1)c1c(CCN(C)C)sc2ccccc12 (racemic) . Value?
*A* 35

*Q* Endpoint output: Ki of C[C@H](c1cccnc1Cl)c1c(CCN(C)C)sc2ccccc12 . Value?
*A* 2.9

*Q* Endpoint output: Ki of Cc1ncccc1[C@@H](C)c1c(CCN(C)C)sc2ccccc12 . Value?
*A* 17

---

- protocol: Ratio of drug level in rat brain to plasma at 30 mg/kg, po after 4 hrs
- Format: ADME, organism-based
- Set-up: dose 30 mg/kg, route oral
- conditions-used: read-out: Ratio
Kindly state Kp at 4 h for each of the entries shown.
Respond using a number only.

*Q* Endpoint output: Kp at 4 h of C[C@H](c1cccnc1F)c1c(CCN(C)C)sc2ccccc12 . Value?
*A* 26

*Q* Endpoint output: Kp at 4 h of COc1ncccc1[C@@H](C)c1c(CCN(C)C)sc2ccccc12 . Value?
*A* 9

*Q* Endpoint output: Kp at 4 h of C[C@@H](c1ccccn1)c1c(CCN(C)C)sc2ccccc12 . Value?
*A* 8

---

- target-entity: Histamine H1 receptor (Homo sapiens, UniProt P35367)
- Sequence (P35367 whole entry): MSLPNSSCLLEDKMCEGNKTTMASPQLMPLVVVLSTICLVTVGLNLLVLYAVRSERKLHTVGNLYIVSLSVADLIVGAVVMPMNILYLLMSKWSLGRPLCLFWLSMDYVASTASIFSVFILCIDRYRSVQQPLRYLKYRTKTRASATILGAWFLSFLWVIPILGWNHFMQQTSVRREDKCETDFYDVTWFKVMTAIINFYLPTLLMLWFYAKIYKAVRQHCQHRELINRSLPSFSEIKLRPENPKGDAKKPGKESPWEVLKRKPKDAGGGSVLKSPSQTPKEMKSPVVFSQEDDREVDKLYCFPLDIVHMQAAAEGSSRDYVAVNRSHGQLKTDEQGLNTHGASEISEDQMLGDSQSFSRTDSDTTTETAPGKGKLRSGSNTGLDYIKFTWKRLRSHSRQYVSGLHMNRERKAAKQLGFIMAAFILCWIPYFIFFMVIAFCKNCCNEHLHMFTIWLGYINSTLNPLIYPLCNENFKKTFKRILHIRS
- protocol: Displacement of [3H]pyrilamine from human histamine H1 receptor expressed in CHO Flp-In cells after 90 mins by scintillation counting
- Type: cell-based
Kindly state pKi for each of the entries shown.
Just so you know, pKi here is -log10 of the concentration in molar units; reply with that number alone.

*Q* Endpoint output: pKi of C[C@H](c1ccccn1)c1c(CCN(C)C)sc2ccccc12 . Value?
*A* 6.59

*Q* Endpoint output: pKi of C[C@@H](c1ccccn1)c1c(CCN2CCCC2)sc2ccccc12 . Value?
*A* 8.21

*Q* Endpoint output: pKi of CC(c1ccncc1)c1c(CCN(C)C)sc2ccccc12 (racemic) . Value?
*A* 7.64

---

- protocol: Bioavailability in human at 0.1 mg/kg by microdose study
- Assay type: ADME, organism-based
- conditions-used: in vivo
Kindly state bioavailability for each of the entries shown.
Give just the numeric value; % need not be written.

*Q* Endpoint output: bioavailability of C[C@H](c1cccnc1F)c1c(CCN(C)C)sc2ccccc12 . Value?
*A* 23

*Q* Endpoint output: bioavailability of C[C@@H](c1ccccn1)c1c(CCN(C)C)sc2ccccc12 . Value?
*A* 47

---

- target-entity: Cytochrome P450 2D6 (Homo sapiens, UniProt P10635)
- Sequence (P10635 whole entry): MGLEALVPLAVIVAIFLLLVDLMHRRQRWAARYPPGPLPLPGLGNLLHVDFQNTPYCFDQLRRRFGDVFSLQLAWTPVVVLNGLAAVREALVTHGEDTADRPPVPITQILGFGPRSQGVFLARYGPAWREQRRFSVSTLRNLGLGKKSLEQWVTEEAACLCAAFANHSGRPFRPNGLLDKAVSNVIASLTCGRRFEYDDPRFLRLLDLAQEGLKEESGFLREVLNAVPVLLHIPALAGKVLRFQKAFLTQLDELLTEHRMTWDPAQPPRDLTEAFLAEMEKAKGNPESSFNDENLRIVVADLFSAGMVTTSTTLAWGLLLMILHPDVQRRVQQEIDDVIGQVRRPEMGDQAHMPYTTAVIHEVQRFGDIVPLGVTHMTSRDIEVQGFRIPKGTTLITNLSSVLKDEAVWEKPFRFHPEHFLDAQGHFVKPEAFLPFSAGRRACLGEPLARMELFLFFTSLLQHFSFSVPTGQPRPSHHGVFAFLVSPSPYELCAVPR
- protocol: Inhibition of recombinant CYP2D6 after 30 mins by fluorescence assay
Kindly state IC50 for each of the entries shown.
Give just the numeric value; µM need not be written.

*Q* Endpoint output: IC50 of C[C@@H](c1ncccc1F)c1c(CCN(C)C)sc2ccccc12 . Value?
*A* 4

*Q* Endpoint output: IC50 of CC(c1ccccn1)c1c(CCN(C)C)sc2ccccc12 (racemic) . Value?
*A* 6.9

*Q* Endpoint output: IC50 of CC(c1ccncc1)c1c(CCN(C)C)sc2ccccc12 (racemic) . Value?
*A* 0.85

*Q* Endpoint output: IC50 of COc1ncccc1[C@@H](C)c1c(CCN(C)C)sc2ccccc12 . Value?
*A* 9.6

*Q* Endpoint output: IC50 of C[C@H](c1cccnc1Cl)c1c(CCN(C)C)sc2ccccc12 . Value?
*A* 9.5

*Q* Endpoint output: IC50 of COc1cccnc1[C@H](C)c1c(CCN(C)C)sc2ccccc12 . Value?
*A* 9.5

*Q* Endpoint output: IC50 of C[C@H](c1ccccn1)c1c(CCN(C)C)sc2ccccc12 . Value?
*A* 3.3

*Q* Endpoint output: IC50 of C[C@@H](c1ncccc1Cl)c1c(CCN(C)C)sc2ccccc12 . Value?
*A* 1.5

*Q* Endpoint output: IC50 of C[C@@H](c1ccccn1)c1c(CCN2CCCC2)sc2ccccc12 . Value?
*A* 2.7

*Q* Endpoint output: IC50 of CNCCc1sc2ccccc2c1[C@@H](C)c1ccccn1 . Value?
*A* 9.8

---

- target-entity: Voltage-gated inwardly rectifying potassium channel KCNH2 (Homo sapiens, UniProt Q12809)
- Sequence (Q12809 whole entry): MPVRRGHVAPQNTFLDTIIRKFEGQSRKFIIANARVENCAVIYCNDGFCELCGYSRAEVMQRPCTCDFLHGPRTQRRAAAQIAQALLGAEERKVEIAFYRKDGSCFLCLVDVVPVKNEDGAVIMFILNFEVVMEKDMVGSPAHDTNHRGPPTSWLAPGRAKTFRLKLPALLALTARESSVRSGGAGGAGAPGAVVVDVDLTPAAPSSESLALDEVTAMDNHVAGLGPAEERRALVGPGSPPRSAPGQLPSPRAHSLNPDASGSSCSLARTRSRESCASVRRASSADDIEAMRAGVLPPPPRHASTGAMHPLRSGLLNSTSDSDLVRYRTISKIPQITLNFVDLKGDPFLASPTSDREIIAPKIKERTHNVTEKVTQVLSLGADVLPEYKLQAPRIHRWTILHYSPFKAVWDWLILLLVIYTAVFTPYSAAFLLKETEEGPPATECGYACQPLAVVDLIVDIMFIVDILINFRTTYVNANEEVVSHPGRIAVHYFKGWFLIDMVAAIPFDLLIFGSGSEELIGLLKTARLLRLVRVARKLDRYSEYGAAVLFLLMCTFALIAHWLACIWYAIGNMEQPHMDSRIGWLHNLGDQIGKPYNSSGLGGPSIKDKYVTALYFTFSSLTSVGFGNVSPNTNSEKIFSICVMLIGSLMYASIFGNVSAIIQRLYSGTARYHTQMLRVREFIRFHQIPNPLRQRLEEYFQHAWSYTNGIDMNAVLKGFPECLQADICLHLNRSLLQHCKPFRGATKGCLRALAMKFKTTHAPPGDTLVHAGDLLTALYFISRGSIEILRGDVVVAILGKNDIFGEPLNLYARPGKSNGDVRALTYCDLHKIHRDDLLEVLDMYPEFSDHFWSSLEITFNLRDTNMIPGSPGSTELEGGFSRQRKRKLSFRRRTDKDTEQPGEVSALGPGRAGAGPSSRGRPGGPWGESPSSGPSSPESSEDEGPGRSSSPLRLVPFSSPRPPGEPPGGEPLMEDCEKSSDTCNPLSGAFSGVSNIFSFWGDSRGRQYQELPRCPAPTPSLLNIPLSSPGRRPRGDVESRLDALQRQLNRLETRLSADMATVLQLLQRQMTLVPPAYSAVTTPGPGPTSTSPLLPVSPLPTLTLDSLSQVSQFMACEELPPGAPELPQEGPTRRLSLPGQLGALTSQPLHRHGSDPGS
- protocol: Inhibition of human ERG expressed in HEK cells assessed as blockade of potassium tail current by standard patch clamp analysis
pIC50: −log10 of the molar value.
Please mark Y if the recorded pIC50 is equal to or greater than 6, and N if it falls below.

*Q* Form field: pIC50 at least 6? Entry: COc1cccnc1[C@H](C)c1c(CCN(C)C)sc2ccccc12
*A* N

*Q* Form field: pIC50 at least 6? Entry: C[C@@H](c1ccc(F)cn1)c1c(CCN(C)C)sc2ccccc12
*A* Y

*Q* Form field: pIC50 at least 6? Entry: CNCCc1sc2ccccc2c1[C@@H](C)c1ccccn1
*A* N

*Q* Form field: pIC50 at least 6? Entry: C[C@@H](c1ncccc1F)c1c(CCN(C)C)sc2ccccc12
*A* Y

*Q* Form field: pIC50 at least 6? Entry: C[C@H](c1c(CCN(C)C)sc2ccccc12)n1cccn1
*A* N

---

- target-entity: UniProt P35367
- protocol: Displacement of [3H]pyrilamine from human histamine H1 receptor expressed in CHO Flp-In cells after 90 mins by scintillation counting
- Type: cell-based
- conditions-used: read-out: Ki
Kindly state pKi for each of the entries shown.
Just so you know, pKi here is -log10 of the concentration in molar units; reply with that number alone.

*Q* Endpoint output: pKi of C[C@@H](c1cncs1)c1c(CCN(C)C)sc2ccccc12 . Value?
*A* 8.28

*Q* Endpoint output: pKi of Cc1ccc(C(C)c2c(CCN(C)C)sc3ccccc23)cn1 (racemic) . Value?
*A* 7.16

*Q* Endpoint output: pKi of COc1ccc(C(C)c2c(CCN(C)C)sc3ccccc23)cn1 (racemic) . Value?
*A* 6.92

*Q* Endpoint output: pKi of C[C@H](c1cccnc1F)c1c(CCN(C)C)sc2ccccc12 . Value?
*A* 8.77

*Q* Endpoint output: pKi of C[C@@H](c1ccccn1)c1c(CCN(C)C)sc2ccccc12 . Value?
*A* 8.40

*Q* Endpoint output: pKi of CC(c1c(CCN(C)C)sc2ccccc12)n1ccnc1 (racemic) . Value?
*A* 6.91

*Q* Endpoint output: pKi of COc1cccc(C(C)c2c(CCN(C)C)sc3ccccc23)n1 (racemic) . Value?
*A* 7.23

*Q* Endpoint output: pKi of C[C@@H](c1ncccc1F)c1c(CCN(C)C)sc2ccccc12 . Value?
*A* 8.57

*Q* Endpoint output: pKi of C[C@@H](c1ncccc1Cl)c1c(CCN(C)C)sc2ccccc12 . Value?
*A* 8.10

*Q* Endpoint output: pKi of CC(c1cccc(F)n1)c1c(CCN(C)C)sc2ccccc12 (racemic) . Value?
*A* 7.42

*Q* Endpoint output: pKi of CNCCc1sc2ccccc2c1[C@@H](C)c1ccccn1 . Value?
*A* 7.49

*Q* Endpoint output: pKi of C[C@@H](c1ccccn1)c1c(CCN2CCC2)sc2ccccc12 . Value?
*A* 8.41
